Source: patent US9388208B2

# Assay Details: Cytotoxicity assay in MT-4 cells
# Assay type: cell-based
# Run Parameters: human, Cell-Titer Glo
Measured CC50 at 5 days of individual entries
Numeric answer only, unit µM assumed.

A selection of reference data follows.
Smiles Data	CC50 at 5 days / µM
[N-]=[N+]=N[C@]1(CO)O[C@@H](c2ccc3c(N)ncnn23)[C@H](F)[C@@H]1O	16
C[C@]1(CO)O[C@@H](c2ccc3c(N)ncnn23)[C@H](F)[C@@H]1O	11

--- query ---
Q: Give CC50 at 5 days for `[N-]=[N+]=N[C@]1(CO)O[C@@H](c2cc(F)c3c(N)ncnn23)[C@H](F)[C@@H]1O`
Ans: 15

====

# System: MT-4 cells
# Assay Details: Cytotoxicity assay in MT-4 cells
# Type: cell-based
# Run Parameters: 5 days, Cell-Titer Glo
# Procedure: The MT-4 cell line was obtained from the NIH AIDS Research and Reference Reagent Program (Germantown, Md.) and cultured in RPMI-1640 medium (Irvine Scientific, Santa Ana, Calif., Cat #9160) supplemented with 10% FBS, 100 units/mL penicillin, 100 units/mL streptomycin, and 2 mM L-Glutamine. […] Following the incubation the cells were allowed to equilibrate to 25° C. and cell viability was determined by adding 25 μL of Cell-Titer Glo viability reagent. […]
Result Type: CC50 (µM)
// units = µM; emit number, no label

Smiles Data	CC50 [µM]
[N-]=[N+]=N[C@]1(CO)O[C@@H](c2ccc3c(N)nc(F)nn23)[C@H](F)[C@@H]1O	32

--- query ---
Q: Quote CC50 with test system MT-4 cells for `CC(C)(C)C(=O)SCCOP(=O)(OCCSC(=O)C(C)(C)C)OC[C@@]1(C#N)O[C@@H](c2ccc3c(N)ncnn23)[C@H](O)[C@@H]1O`
Ans: 7.3

====

# Assay Details: Cytotoxicity assay in MT-4 cells
# Format: cell-based
# Run Parameters: human, Cell-Titer Glo
CC50 at 5 days listing for selected molecules.

Molecule	Experimental Result
C=C[C@]1(CO)O[C@@H](c2ccc3c(N)ncnn23)[C@H](F)[C@@H]1O [Example 13]	> 106 µM
CC[C@]1(CO)O[C@@H](c2ccc3c(N)ncnn23)[C@H](F)[C@@H]1O [Example 14]	> 106 µM
N#C[C@]1(CO)O[C@@H](c2ccc3c(N)ncnn23)[C@H](F)[C@@H]1O [Example 3]	> 106 µM

Q: Could you please provide reported CC50 at 5 days for [N-]=[N+]=N[C@]1(CO)O[C@@H](c2ccc3c(N)ncnn23)[C@H](O)[C@@H]1O [Example 5] ? Thanks!
Ans: > 53 µM

====

Let's look at some compounds and their measured CC50 at 4 days.
# Assay Details: Cytotoxicity assay in HEp-2 cells
# Assay type: cell-based
# Run Parameters: human, uninfected HEp-2 cells, CellTiter Glo
# Method: Cytotoxicity of tested compounds is determined in uninfected HEp-2 cells in parallel with the antiviral activity using the cell viability reagent in a similar fashion as described before for other cell types (Cihlar et al., Antimicrob Agents Chemother. 2008, 52(2):655-65.). […] Assay plates are then incubated for 4 days followed by a cell viability test using the same CellTiter Glo reagent addition and measurement of luminescent readouts. […]

Consider the following illustrative entries.
Compound	Result Type	Experimental Result
CC[C@]1(CO)O[C@@H](c2ccc3c(N)ncnn23)[C@H](F)[C@@H]1O	CC50 at 4 days	> 100 µM
[N-]=[N+]=N[C@]1(CO)O[C@@H](c2ccc3c(N)ncnn23)[C@H](O)[C@@H]1O	CC50 at 4 days	> 50 µM
[N-]=[N+]=N[C@]1(CO)O[C@@H](c2cc(F)c3c(N)ncnn23)[C@H](F)[C@@H]1O	CC50 at 4 days	36 µM
C#C[C@]1(CO)O[C@@H](c2ccc3c(N)ncnn23)[C@H](F)[C@@H]1O	CC50 at 4 days	> 100 µM
CCOC(=O)[C@H](C)NP(=O)(OC[C@@]1(C#N)O[C@@H](c2ccc3c(N)ncnn23)[C@H](O)[C@@H]1O)Oc1ccccc1 (some centres unmarked)	CC50 at 4 days	> 50 µM
C[C@]1(CO)O[C@@H](c2ccc3c(N)ncnn23)[C@H](F)[C@@H]1O	CC50 at 4 days	> 100 µM
[N-]=[N+]=N[C@]1(CO)O[C@@H](c2ccc3c(N)ncnn23)[C@H](F)[C@@H]1O	CC50 at 4 days	> 44 µM
[N-]=[N+]=N[C@]1(CO)O[C@@H](c2ccc3c(N)nc(F)nn23)[C@H](F)[C@@H]1O	CC50 at 4 days	> 100 µM

Q: Supply CC50 at 4 days value. Item: `C=C[C@]1(COP(=O)(OCCSC(=O)C(C)(C)C)OCCSC(=O)C(C)(C)C)O[C@@H](c2ccc3c(N)ncnn23)[C@H](F)[C@@H]1O`
Ans: 35 µM

Q: For the compound CCC(CC)COC(=O)[C@H](C)NP(=O)(OC[C@@]1(C#N)O[C@@H](c2ccc3c(N)ncnn23)C(F)C1O)Oc1ccccc1 (some centres unmarked) , give its measured CC50 at 4 days value.
Ans: > 50 µM

Q: Provide only the value of recorded CC50 at 4 days for `Nc1ncnn2c([C@@H]3O[C@@](CO)(CCl)[C@@H](O)[C@H]3O)ccc12`
Ans: 42 µM

Q: Read the entry `C=C[C@]1(CO)O[C@@H](c2ccc3c(N)ncnn23)[C@H](F)[C@@H]1O` and write its reported CC50 at 4 days.
Ans: > 100 µM

Q: Tell me measured CC50 at 4 days for `N#C[C@]1(CO)O[C@@H](c2ccc3c(N)ncnn23)[C@H](F)[C@@H]1O` please.
Ans: > 100 µM

Q: Quickly give me recorded CC50 at 4 days for `N#C[C@]1(CO)O[C@@H](c2cc(F)c3c(N)ncnn23)[C@H](O)[C@@H]1O`
Ans: > 100 µM

====

# Assay Details: Cytotoxicity assay in MT-4 cells
# Assay type: cell-based
# Run Parameters: human, Cell-Titer Glo
Result Type: CC50 at 5 days

Smiles Data	CC50 at 5 days
C[C@]1(CO)O[C@@H](c2ccc3c(N)ncnn23)[C@H](O)[C@@H]1O	> 53 µM
N#C[C@]1(CO)O[C@@H](c2cc(F)c3c(N)ncnn23)[C@H](O)[C@@H]1O	> 93 µM
C=C[C@]1(CO)O[C@@H](c2ccc3c(N)ncnn23)[C@H](O)[C@@H]1O	> 53 µM

// moving on: another record for CC50 at 5 days
Q: Identify measured CC50 at 5 days corresponding to `C#C[C@]1(CO)O[C@@H](c2ccc3c(N)ncnn23)[C@H](F)[C@@H]1O`
Ans: > 106 µM
